Give log10 IC50 for every item shown.
- Test system: P388
- Test Name: Antitumor activity against mouse P388 cells
- Assay type: functional, cell-based
Note: values are log10 of IC50 expressed in µg/mL.

Molecule	Target	Result Type	Value Observed
CC1(C)CCC[C@]2(C)[C@@H]3C(=CO[C@@H]3O)CC[C@@H]12	P388	log10 IC50	-0.30
CN(Cc1cnc2nc(N)nc(N)c2n1)c1ccc(C(=O)N[C@@H](CCC(=O)O)C(=O)O)cc1 [METHOTREXATE]	P388	log10 IC50	-2.70
O=c1[nH]cc(F)c(=O)[nH]1 [FLUOROURACIL]	P388	log10 IC50	-1.70
COc1cccc2c1C(=O)c1c(O)c3c(c(O)c1C2=O)C[C@@](O)(C(=O)CO)C[C@@H]3O[C@H]1C[C@H](N)[C@H](O)[C@H](C)O1.Cl [DOXORUBICIN HYDROCHLORIDE]	P388	log10 IC50	-1.00

What value of log10 IC50 has been reported for the following molecule? CC1(C)CCC[C@]2(C)[C@@H](C=O)C(C=O)=CC[C@@H]12 [POLYGODIAL]
0.08
